system.name: Histone deacetylase 1 (Homo sapiens, UniProt Q13547)
Sequence (Q13547 whole entry): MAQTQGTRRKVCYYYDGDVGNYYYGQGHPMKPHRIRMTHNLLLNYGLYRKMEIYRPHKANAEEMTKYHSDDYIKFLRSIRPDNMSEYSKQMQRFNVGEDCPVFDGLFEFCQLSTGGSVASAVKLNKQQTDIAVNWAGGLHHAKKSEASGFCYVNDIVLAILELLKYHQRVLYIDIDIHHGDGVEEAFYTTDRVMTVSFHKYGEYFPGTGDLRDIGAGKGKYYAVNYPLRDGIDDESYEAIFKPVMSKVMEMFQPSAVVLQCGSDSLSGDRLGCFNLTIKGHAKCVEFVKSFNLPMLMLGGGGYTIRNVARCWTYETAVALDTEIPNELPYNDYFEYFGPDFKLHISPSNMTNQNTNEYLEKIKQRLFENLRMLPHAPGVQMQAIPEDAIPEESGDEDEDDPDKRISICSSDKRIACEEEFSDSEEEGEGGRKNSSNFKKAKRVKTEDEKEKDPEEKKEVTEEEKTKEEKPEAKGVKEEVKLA
assay.text: Inhibition of human recombinant HDAC1 using Ac-Leu-Gly-Lys (Ac)-AMC substrate incubated for 30 mins by fluorescence assay
Please respond with reported Ki for every item in the list.

The reported Ki value, Histone deacetylase 1 (Homo sapiens, UniProt Q13547), for CC(C)[C@H]1NC(=O)[C@@H](C)[C@@H](C/C=C\CCC(=O)O)NC(=O)[C@@H](Cc2ccc(O)cc2)NC(=O)[C@@H](C)NC1=O [AZUMAMIDE C] reads 20 nM

The reported Ki value, Histone deacetylase 1 (Homo sapiens, UniProt Q13547), for CCC[C@H]1NC(=O)[C@@H](Cc2ccc(O)cc2)NC(=O)[C@@H](C)NC(=O)[C@@H](C(C)C)NC(=O)[C@H]1C reads 2400 nM
